# System: SK-OV-3 ovarian
# Test Details: NCI tumour cell line growth inhibition, 48 h
Would you mind labelling by TGI? At or over 20 µM is 1, under is 0.

# bool: TGI of Cc1ccc(SC2=C(N(C)C)C(=O)c3ccccc3C2=O)cc1 >= 20 µM
1

# bool: TGI of CC(=O)OCC1OC(n2c(C)c(C(C)=O)c(-c3ccc(Cl)cc3)c(C#N)c2=S)C(OC(C)=O)C(OC(C)=O)C1OC(C)=O (stereo not given) >= 20 µM
1

# bool: TGI of CCCCCCCCCCCCCCCC(=O)Nc1ccn(C2OC(CO)C(O)C2O)c(=O)n1 (stereo not given) >= 20 µM
1

# bool: TGI of O=C(Cn1nnc(-c2ccccc2)n1)N/N=C/c1cn(Cc2ccc(Cl)cc2Cl)c2ccccc12 >= 20 µM
1

# bool: TGI of C[C@]12OC(=O)[C@]3(O)CC[C@H]4[C@@H](C[C@@H](O)[C@@]5(Cl)CC=CC(=O)[C@]45C)[C@]45OCC6C(=O)O[C@@H]1C[C@@]6(C)[C@H](C4=O)[C@@]32O5 (stereo not given in full) >= 20 µM
0

# bool: TGI of CN(C)C=Nc1ccc2c3c(cccc13)-c1ccccc1-2 >= 20 µM
1

# bool: TGI of CC1=C(C(=O)OCCc2ccc([N+](=O)[O-])cc2)C(c2cccc([N+](=O)[O-])c2)C(C(=O)OC(C)C)=C(C)N1 (stereo not given) >= 20 µM
1

# bool: TGI of COc1ccc(-c2cc(-c3ccccc3)nc(N)c2-c2ccc3ccccc3c2)cc1 >= 20 µM
0

# bool: TGI of CN(C)c1ccc2nc3ccc(=[N+](C)C)c([N+](=O)[O-])c-3sc2c1 >= 20 µM
1

* * *

Assign TGI to each entry below.
# Tested on: UACC-257 melanoma
# Test Details: NCI tumour cell line growth inhibition, 48 h

Documented TGI of Oc1c(CNCCCN2CCCC2)cc(Cl)c2cccnc12 : 24.2 µM

Documented TGI of COc1cccc(C2CC(=O)c3cc(N4CCCC4)ccc3N2)c1 (configuration not stated) : > 100 µM

Documented TGI of Cc1ccc2c(=O)cc(-c3ccc(Cl)cc3)[nH]c2n1 : > 67.7 µM

Documented TGI of CCOC(=O)Oc1ccc(C(CNC(C)C)OC(=O)OCC)cc1OC(=O)OCC (configuration not stated) : > 100 µM

Documented TGI of C[C@H](Nc1ccc2c(c1)OCCn1cc(N3C(=O)OC[C@H]3C(F)F)nc1-2)C(N)=O : > 100 µM

Documented TGI of O=S(=O)(Nc1cccc(Cl)c1)c1ccc(-c2cnc(C3CC3)o2)cc1 : 30.2 µM

Documented TGI of N[C@@H]1CCCC[C@@H]1N.O=P([O-])([O-])CNCP(=O)([O-])[O-].[Pt+2] : > 100 µM

Documented TGI of Cc1cc(Cc2c(C)c(C)c(Cc3cc(C)cc(C(C)(C)C)c3O)c(C)c2C)c(O)c(C(C)(C)C)c1 : > 100 µM

Documented TGI of COC(=O)CCC1(C)C2CCC1/C(=N/O)C2 (configuration not stated) : > 100 µM

Documented TGI of O=C1C2=Cc3ccccc3OC2(O)Oc2cc(O)cc(O)c21 (configuration not stated) : > 100 µM

Documented TGI of CC(CCc1ccccc1)NCC(O)n1c(/N=N/N(C)C)nc2c1c(=O)n(C)c(=O)n2C (configuration not stated) : > 100 µM

Documented TGI of CC(C)Cn1cnc2c(Sc3c([N+](=O)[O-])ncn3C)nc(N)nc21 : > 100 µM

Documented TGI of C/C(=N/NC(=O)c1ccccc1O)c1ccc(/C(C)=N\NC(=O)c2ccccc2O)c2nc3cc(C)c(C)cc3nc12 : > 100 µM

Documented TGI of C[C@]12CC[C@H](OC3CCCCO3)CC1=CC[C@@H]1C2CC[C@]2(C)/C(=N/OCCC#N)CCC12 (some centres not stated) : > 100 µM

Documented TGI of CC1(C)CCCC2(C)[C@@H]1CC[C@@]13CC(=O)[C@@](C)(CC[C@@H]21)C3 (some centres not stated) : 97.3 µM

Documented TGI of Cc1ccc(Cl)cc1Nc1nc(C(F)(F)F)ccc1C(N)=O : 83.5 µM

Documented TGI of CC[C@H](C)[C@H](NC(=O)C12CC(NC)(C1)C2)C(=O)N(C)[C@H](C[C@@H](OC(C)=O)c1nc(C(=O)N[C@@H](Cc2ccccc2)C[C@H](C)C(=O)OC)cs1)C(C)C : > 25 µM

Documented TGI of CC(C)N(C(=O)C12C3(C(=O)OC(C)(C)C)C4C5(C#N)C3C1(C(=O)OC(C)(C)C)C5C42C(=O)OC(C)(C)C)C(C)C (configuration not stated) : > 100 µM

Documented TGI of COc1nc(=O)cc(N)n1C1OC(CO)C(O)C1O (configuration not stated) : > 100 µM

Documented TGI of COc1ccc2c(c1)c(-c1nonc1-c1cn(C)c3ccccc13)cn2C : > 100 µM

Documented TGI of Fc1cc(-c2csc3n[nH]c(=S)n23)c(Cl)cc1Cl : > 100 µM

Documented TGI of CCc1c(-c2ccccc2)[nH]c2ccccc2c1=O : > 100 µM

Documented TGI of CCOC(=O)C(=CNC(=S)c1ccncc1)C(=O)OCC : > 100 µM

Documented TGI of CCn1cc(C2NC(=O)c3ccccc3N2)c2cccc(C)c21 (configuration not stated) : > 100 µM

Documented TGI of COc1cccc(CNCCN2C(=O)c3ccc4c5c(ccc(c35)C2=O)C(=O)N(CCNCc2cccc(OC)c2)C4=O)c1 : 3.82 µM

Documented TGI of CCCCC(CCCC)=NNC(=S)SC : 75.7 µM

Documented TGI of O=C(c1ccccc1)N(C(=S)NCCc1ccc(Cl)cc1)c1ccc(Cl)cc1 : 34.6 µM
